meta.source: paper PMC3198402

biological target: B*0801 (Homo sapiens, UniProt P01889, A93T/A95T/D138N/E176V/E187T/K202T/Q94N/R180D/S35A/V36M/Y33D/Y91F); experiment: biochemical; format: binding
pKd: −log10 of the molar value. Where no end group is shown, it is not given here.
Kindly return T if reported pKd is no lower than 7; return F if it is lower.

Examples with answers:
| sequence content | class |
| --- | --- |
| KCRLKMDKL [Peptide 14732] | F |
| VYQRGTHPF [YFV A24/B8 16031] | F |
| EMKEAFHGL [YFV B8 15947] | F |
| VINWKGKEL [Peptide 14736] | F |
| LAKRFSKGL [Peptide 14731] | F |
| HLKRLWKML [YFV B8 15942] | T |
| FRKKRLTIM [Peptide 14729] | T |
| CAHWKEAKM [Peptide 14725] | F |
| KKKLRPRWL [Peptide 14730] | F |
| YFHRRDLRL [Peptide 14727] | T |

Threshold query (pKd >= 7) on KCRLRMDKL [Peptide 14723]
F

Threshold query (pKd >= 7) on RKKLRPRWL [Peptide 14734]
F
